ASSAY INFO: STM_H9_NormalizedViability: Cytotoxicity Assessment at 120 hours in the Stemina devTOX quickPredict H9 human embryonic stem cell (hESC)-based Assay (AID 2283784)
Inconclusive results are not listed. The source made the active and inactive calls. The calls were made as follows: active = hit-call score of the fitted dose curve at least 0.9, where 1 is the maximum; inconclusive = response in the unintended direction; inactive = score below 0.9.
Parameter call: string, one of active, inactive

>>> category_label("O=C(Nc1ccc2[nH]ccc2c1)c1cc2cc(F)ccc2n1Cc1cccc(F)c1")
"inactive"
>>> category_label("CCN1CCC2(CC1)COc1cc3c(cc12)N(C(=O)c1ccc(-c2ccc(-c4nnc(C)o4)cc2C)cc1)CC3")
"active"
>>> category_label("O=C(O)C(Cl)(Cl)Cl")
"inactive"
>>> category_label("C[C@@H]1C[C@@H]([C@H](O)CC2CC(=O)NC(=O)C2)C(=O)[C@@H](C)C1")
"active"
>>> category_label("ClC1(Cl)C2(Cl)C3(Cl)C4(Cl)C(Cl)(Cl)C5(Cl)C3(Cl)C1(Cl)C5(Cl)C24Cl (configuration not stated)")
"inactive"
>>> category_label("C=C(C)C(=O)[O][Sn]([CH2]CCC)([CH2]CCC)[CH2]CCC")
"active"

Next molecule, please.
Lab log entry: CC(=O)[O][Hg][c]1ccccc1 — outcome as called in the assay? active
